assay: amyloid nucleation score (Sup35N fusion, yeast selection) (log enrichment); library NNK1; higher = more nucleation; inactive = no reads after selection;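 further: zero at mode of non-aggregating sequences after 7 days selection at 30°C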
Rule: amyloid nucleation score of 0.2 or more gives condition met; anything lower gives condition not met.

// below: answered substances
[[record]]
substance = "MRPPGNPGWWVRRKARWDPG"
assigned_class = "condition not met"

[[record]]
substance = "LRTVPIALIRNMLPVNQESR"
assigned_class = "condition met"

[[record]]
substance = "LYSAGRCYARSCVKL"
assigned_class = "condition met"


Decide: amyloid nucleation score of TYNRGMGGRISVFCLFTGVM >= 0.2?
condition not met

Decide: amyloid nucleation score of YNMVFWTKFSLSWLLCLHGK >= 0.2?
condition met

Decide: amyloid nucleation score of HTEYRKYRVCTFLK >= 0.2?
condition met

Decide: amyloid nucleation score of ILLPWGMCWWMLCR >= 0.2?
condition not met

Decide: amyloid nucleation score of AMNGVLVIGGV >= 0.2?
condition not met

Decide: amyloid nucleation score of RMLTARNGLGMMRL >= 0.2?
condition not met

Decide: amyloid nucleation score of RYSYFSSASCLRYRAPKGRG >= 0.2?
condition not met

Decide: amyloid nucleation score of GVTHKDMSNDYFMGD >= 0.2?
condition not met

Decide: amyloid nucleation score of WALISYGVWGTRTADLCRCH >= 0.2?
condition met

Decide: amyloid nucleation score of RFFFGYAK >= 0.2?
condition met

Decide: amyloid nucleation score of NRSYNN >= 0.2?
condition not met

Decide: amyloid nucleation score of NLPVGLEAM >= 0.2?
condition not met

Decide: amyloid nucleation score of IMLANVSLLVRNHGRY >= 0.2?
condition met

Decide: amyloid nucleation score of SFKWLGTFRYSYTKSTEHVW >= 0.2?
condition not met

Decide: amyloid nucleation score of WLSSKGRQSMSYCAYTMRTP >= 0.2?
condition not met

Decide: amyloid nucleation score of CKHVETK >= 0.2?
condition not met

---

test: amyloid nucleation score (Sup35N fusion, yeast selection) (log enrichment); library NNK1; higher = more nucleation; inactive = no reads after selection
Rule: amyloid nucleation score of 2 or more gives Condition met; anything lower gives Condition not met.

[[record]]
substance = "RPHSGVIDDL"
assigned_class = "Condition not met"


Decide: amyloid nucleation score of ENYTCRTWAPLSGPRIWVGS >= 2?
Condition not met

---

assay: amyloid nucleation score (Sup35N fusion, yeast selection) (log enrichment); library NNK3; higher = more nucleation; inactive = no reads after selection
Property name: amyloid nucleation score

Consider the following illustrative entries.
[[record]]
substance = "RCTVSTSGSGGFCPVPRSGM"
recorded_measurement = "inactive"

[[record]]
substance = "VYFGSWTWSVNSKHLPPALV"
recorded_measurement = "inactive"

[[record]]
substance = "VLYSCERKELVIGMKVLVWE"
recorded_measurement = "inactive"

[[record]]
substance = "RAVYSGVSMD"
recorded_measurement = "inactive"


What does the data say about its amyloid nucleation score? Entry: IYFDVV
inactive

What does the data say about its amyloid nucleation score? Entry: YLQFIDENS
inactive

What does the data say about its amyloid nucleation score? Entry: SSARAKWSDQQMSSYRA
inactive

What does the data say about its amyloid nucleation score? Entry: FGTNVLYAFM
inactive

What does the data say about its amyloid nucleation score? Entry: NPFRGFLTIQCRPILRFPDK
inactive

What does the data say about its amyloid nucleation score? Entry: CCSSRMYLEGCPSLRLMEHI
inactive

What does the data say about its amyloid nucleation score? Entry: DMCEGYVNYCRMHRAMRHDD
inactive

What does the data say about its amyloid nucleation score? Entry: IVDFFGFNFCSWLSVFSDSR
2.48

What does the data say about its amyloid nucleation score? Entry: VTDEIFELSGKVTIDSAEL
inactive

What does the data say about its amyloid nucleation score? Entry: IDIESL
inactive

What does the data say about its amyloid nucleation score? Entry: TFRLAEQQSEFSDLK
-0.335

What does the data say about its amyloid nucleation score? Entry: SVLLISVEYVAYEFLSHSVR
2.05

What does the data say about its amyloid nucleation score? Entry: FFCKRFYSKFPDQWLAHSVE
inactive

What does the data say about its amyloid nucleation score? Entry: GYMSLLHSKPPFWSNP
0.465

What does the data say about its amyloid nucleation score? Entry: DLAINGSAAQTVVLRAERSY
inactive

What does the data say about its amyloid nucleation score? Entry: MFLLMNKV
inactive

What does the data say about its amyloid nucleation score? Entry: DRSIEVDAYSCAVGVYQGPV
inactive

What does the data say about its amyloid nucleation score? Entry: SNIRYRNFRSGFFIQWLHTG
inactive

What does the data say about its amyloid nucleation score? Entry: RKLGPSHQWNHRWGFSVRSC
inactive

What does the data say about its amyloid nucleation score? Entry: FATVYELAYYQGTYCKVRCS
0.148

What does the data say about its amyloid nucleation score? Entry: PVPLAMYFYVALIYFDWW
inactive

What does the data say about its amyloid nucleation score? Entry: LFVLGPDRLDCAQCKLLRDR
inactive

---

assay: amyloid nucleation score (Sup35N fusion, yeast selection) (log enrichment); library NNK2; higher = more nucleation; inactive = no reads after selection
Property name: amyloid nucleation score

Consider the following illustrative entries.
[[record]]
biosequence = "KLVTYVPSNKTNCHDDDGTY"
property_name = "amyloid nucleation score"
recorded_measurement = -0.678

[[record]]
biosequence = "YVCVYTDF"
property_name = "amyloid nucleation score"
recorded_measurement = -1.38

[[record]]
biosequence = "ASALGRWFTPHVSFIKYGGA"
property_name = "amyloid nucleation score"
recorded_measurement = 0.531

[[record]]
biosequence = "YVIQMYLSEATGCYVFTYFF"
property_name = "amyloid nucleation score"
recorded_measurement = 0.368

[[record]]
biosequence = "DRPGDRSGTAWAWFRCETGG"
property_name = "amyloid nucleation score"
recorded_measurement = 1.1

[[record]]
biosequence = "KWDHPKEVFCSVRTSGRGVE"
property_name = "amyloid nucleation score"
recorded_measurement = 2.04

[[record]]
biosequence = "YRYAASVPKCNTGSRDVAQT"
property_name = "amyloid nucleation score"
recorded_measurement = 0.942

[[record]]
biosequence = "LNNSIYHLGKY"
property_name = "amyloid nucleation score"
recorded_measurement = "inactive"

[[record]]
biosequence = "ATMEGSAECVFTRDIKIFRH"
property_name = "amyloid nucleation score"
recorded_measurement = "inactive"

[[record]]
biosequence = "HSHPCDREFLPRMHAWLDSS"
property_name = "amyloid nucleation score"
recorded_measurement = -0.135


What does the data say about its amyloid nucleation score? Entry: HSFNPNTCYLKGIDDALLGF
-0.838

What does the data say about its amyloid nucleation score? Entry: ASREWASSVVLW
0.427

What does the data say about its amyloid nucleation score? Entry: SFNNVKLDGRSF
-0.59

What does the data say about its amyloid nucleation score? Entry: YFSSQLDLRRIMLLLSRYV
0.721

What does the data say about its amyloid nucleation score? Entry: AMGNKREKVL
0.601

What does the data say about its amyloid nucleation score? Entry: VDITRWIDVMVYF
-0.19

What does the data say about its amyloid nucleation score? Entry: FSGLTDHFRSYLMYSAWTNI
-0.238

---

assay: amyloid nucleation score (Sup35N fusion, yeast selection) (log enrichment); library NNK1; higher = more nucleation; inactive = no reads after selection
Property name: amyloid nucleation score
Could you keep your reply to the number by itself?

Consider the following illustrative entries.
[[record]]
substance = "GMYPGESSWKLEKEVIL"
recorded_measurement = 0.539

[[record]]
substance = "ILKSSGICFDGLPTKFNL"
recorded_measurement = 0.127

[[record]]
substance = "VSKTTRSCCWELFEA"
recorded_measurement = -0.052

[[record]]
substance = "RLAYYFKGNANDFLAYLAKY"
recorded_measurement = -0.66

[[record]]
substance = "TVNRMIFFMRLLYTRVKL"
recorded_measurement = -1.68


What does the data say about its amyloid nucleation score? Entry: CVHAHTTHITSCRARPSTEA
0.435

What does the data say about its amyloid nucleation score? Entry: GYMSRVTLVVCTMMIRRNGD
0.906

What does the data say about its amyloid nucleation score? Entry: RLGLVVSVGRRRLLTAQLGK
1.38

What does the data say about its amyloid nucleation score? Entry: GRDLPYMTRRNTLWSSKVVF
0.206

What does the data say about its amyloid nucleation score? Entry: FCEDKNRRSSPSIWQNNCKM
0.829

What does the data say about its amyloid nucleation score? Entry: HLSMFDCVYSF
1.26

What does the data say about its amyloid nucleation score? Entry: LFLSSCLNSGLGGTL
0.105

What does the data say about its amyloid nucleation score? Entry: SGRYMWQEISLMFCLSDVSP
0.836

---

experiment: amyloid nucleation score (Sup35N fusion, yeast selection) (log enrichment); library NNK3; higher = more nucleation; inactive = no reads after selection
Property name: amyloid nucleation score

Consider the following illustrative entries.
[[record]]
substance = "VKSFCCFGWVLSP"
recorded_measurement = "inactive"

[[record]]
substance = "VIFISILPLRKCSDKWEDNN"
recorded_measurement = "inactive"

[[record]]
substance = "NMIEVI"
recorded_measurement = "inactive"

[[record]]
substance = "TNTFQSRNMFVNTALIYSP"
recorded_measurement = "inactive"

[[record]]
substance = "SPARRLAAFGFVVL"
recorded_measurement = -0.385


What does the data say about its amyloid nucleation score? Entry: AIYAHYYRTWVFWYYMVPGC
inactive

What does the data say about its amyloid nucleation score? Entry: TDKRSGVKLNLYFITNTIFA
2.17

What does the data say about its amyloid nucleation score? Entry: HFGYSGFDYYICTRY
0.049

What does the data say about its amyloid nucleation score? Entry: RRLSSHLFMLWYMVR
inactive

Reference source for all entries: the supplement of paper PMC12042874
